Test system: Bacillus cereus
Test: Antibacterial activity against Bacillus cereus assessed as inhibition of bacterial growth incubated for 24 hrs by agar well diffusion method; note: test concentration or dose not given here
Type: functional
The source made the active and inactive calls. No cut-off for these calls is given here.
measure: diameter of the inhibition zone (DIZ)

| cpd-smiles | test-result |
| --- | --- |
| Cc1ccc(-n2cc(COc3ccc4c(c3)CCC4)nn2)c(C)c1 | 10 mm |
| COc1cccc(NC(=O)Cn2cc(COc3ccc4c(c3)CCC4)nn2)c1 | inactive |
| O=C(Cn1cc(COc2ccc3c(c2)CCC3)nn1)Nc1ccc(F)cc1 | inactive |
| Fc1ccccc1-n1cc(COc2ccc3c(c2)CCC3)nn1 | inactive |
| Brc1ccccc1-n1cc(COc2ccc3c(c2)CCC3)nn1 | 9 mm |
| COc1cccc(-n2cc(COc3ccc4c(c3)CCC4)nn2)c1 | inactive |
| Cc1ccc([N+](=O)[O-])cc1-n1cc(COc2ccc3c(c2)CCC3)nn1 | 12 mm |
| CN(C)[C@@H]1C(O)=C(C(N)=O)C(=O)[C@@]2(O)C(O)=C3C(=O)c4c(O)cccc4[C@@](C)(O)[C@H]3C[C@@H]12 | 33 mm |
| O=C(Cn1cc(COc2ccc3c(c2)CCC3)nn1)Nc1ccccc1Cl | inactive |
| Cc1ccccc1NC(=O)Cn1cc(COc2ccc3c(c2)CCC3)nn1 | inactive |
| c1ccc(-n2cc(COc3ccc4c(c3)CCC4)nn2)cc1 | inactive |
| O=C(Cn1cc(COc2ccc3c(c2)CCC3)nn1)Nc1ccc(Br)cc1 | inactive |
| Brc1ccc(-n2cc(COc3ccc4c(c3)CCC4)nn2)cc1 | inactive |
| COc1ccc(NC(=O)Cn2cc(COc3ccc4c(c3)CCC4)nn2)cc1 | inactive |
| Clc1ccc(-n2cc(COc3ccc4c(c3)CCC4)nn2)cc1 | inactive |
| O=C(Cn1cc(COc2ccc3c(c2)CCC3)nn1)Nc1cccc([N+](=O)[O-])c1 | 12 mm |
| Cc1cccc(-n2cc(COc3ccc4c(c3)CCC4)nn2)c1 | inactive |
| O=[N+]([O-])c1cccc(-n2cc(COc3ccc4c(c3)CCC4)nn2)c1 | 13 mm |
| Cc1cc(C)c(-n2cc(COc3ccc4c(c3)CCC4)nn2)c(C)c1 | inactive |
| COc1ccccc1-n1cc(COc2ccc3c(c2)CCC3)nn1 | inactive |
| O=C(Cn1cc(COc2ccc3c(c2)CCC3)nn1)Nc1cccc(Cl)c1 | 10 mm |

These data points were gathered from ChEMBL document CHEMBL4699525.
